From: PubChem BioAssay (NCI)

# reported TGI; entries follow
Tested on: SF-295 CNS
experimental protocol: NCI tumour cell line growth inhibition, 48 h

>>> recorded_value("NC(=O)C1c2ccccc2C=Cc2ccccc21")
"> 100 µM"

Fill in TGI for CC(C)(C)N1C(=O)c2ccccc2C1(O)C(F)(F)F (stereo not drawn) tested with SF-295 CNS.
> 100 µM

Fill in TGI for NC(=NCCCC1(c2ccccc2)CCCC1)Nc1ccc(Cl)cc1 tested with SF-295 CNS.
3.06 µM

* * *

System: HOP-62 NSCLC
experimental protocol: NCI tumour cell line growth inhibition, 48 h
Where a SMILES comes first, the peptide text is derived from it. [ ]: non-standard residue; d: D form. The star is where a group is joined. Phe(4-NO2) = N[CH](Cc1ccc([N+](=O)[O-])cc1)C(=O)O; Cbz = O=C(OCc1ccccc1)*
measured endpoint: TGI

These solved cases illustrate the format of a correct answer.
>>> recorded_value("CN(C)CC1CCCC(CN2CCCCC2)C1=O (centres undefined)")
"> 100 µM"
>>> recorded_value("Cc1[nH]n(C2=NCCN2)c(=O)c1C")
"> 100 µM"
>>> recorded_value("c1ccc(CSC2(SCc3ccccc3)CCCC2)cc1")
"> 10 µM"

Kindly consider the entry below.
Fill in reported TGI for this entry: CCOC(=O)CCC(NC(=O)OCc1ccccc1)C(=O)NC(CCC(=O)OCC)C(=O)NC(Cc1ccc([N+](=O)[O-])cc1)C(=O)NC(CCC(=O)OCC)C(=O)NC(CCC(=O)OCC)C(=O)OCC (centres undefined) (Cbz-E(OEt)E(OEt)[Phe(4-NO2)]E(OEt)E(OEt)-OEt; configuration not given here)
> 100 µM

* * *

# reported TGI; entries follow
Tested on: SF-539 CNS
experimental protocol: NCI tumour cell line growth inhibition, 48 h

>>> recorded_value("O=C(Nc1cccc(NC(=O)C(=O)C2CCC3=C(Sc4ccccc4N3)C2=O)n1)C(=O)C1CCC2=C(Sc3ccccc3N2)C1=O (stereo not drawn)")
"55.1 µM"

Kindly consider the entry below.
Fill in TGI for Cn1c2c(c3ccccc31)CCN1OCC=C[C@@H](C(=O)O)[C@@H]21 tested with SF-539 CNS.
> 100 µM

* * *

System: UACC-257 melanoma
experimental protocol: NCI tumour cell line growth inhibition, 48 h
Where a SMILES comes first, the peptide text is derived from it. Bridges are numbered along the chain shown (N, C = ends). [ ]: non-standard residue; d: D form. The star is where a group is joined. Cbz = O=C(OCc1ccccc1)*; Dab = NCC[CH](N)C(=O)O; Bn = c1ccc(C*)cc1
measured endpoint: TGI

These solved cases illustrate the format of a correct answer.
>>> recorded_value("C/C1=C/C(=O)O[C@@H]2C[C@@H](CC[C@H](C)/C=C\\C=C\\CC1)O[C@@](O)([C@@H]1CSC(=O)N1CO)C2")
"16 µM"
>>> recorded_value("Cc1ccccc1[P+](C)(c1ccccc1C)c1ccccc1C")
"15.8 µM"
>>> recorded_value("Cn1cc(-c2csc(-c3cn(C)c4ccc(Br)cc34)n2)c2cnccc21")
"3.63 µM"
>>> recorded_value("C[C@H]1CC[C@H]([C@@H](C)[C@H]2[C@@H](O)C[C@H]3[C@@H]4CC[C@H]5C[C@@H](O)CC[C@]5(C)[C@H]4CC[C@]23C)NC1")
"35.7 µM"
>>> recorded_value("CC(C)CC1NC(=O)C(Cc2ccccc2)NC(=O)C(Cc2ccccc2)NC(=O)C(NC(=O)C(Cc2ccc(OCc3ccccc3)cc2)NC(=O)OCc2ccccc2)CCNC1=O (configuration not stated) (Cbz-Y(Bn)[Dab]FFL; lactam 2-C; configuration not given here)")
"84.7 µM"

Kindly consider the entry below.
Fill in TGI for CCOC(=O)CC(=O)C(=O)NNC1=NCCN1 tested with UACC-257 melanoma.
> 100 µM

* * *

Tested on: LOX IMVI melanoma
experimental protocol: NCI tumour cell line growth inhibition, 48 h
# reported TGI; entries follow

>>> recorded_value("CO/[N+]([O-])=C\\C(=O)N/C=C/C(=O)O")
"> 100 µM"
>>> recorded_value("O=C(Nc1cc2c(=O)[nH]c3ccccc3c2oc1=O)c1cnccn1")
"> 100 µM"
>>> recorded_value("CCOC(=O)C(NC(=O)C(CCCCNP(=O)(OCC)OCC)NC(=O)C(C)NC(C)=O)C(C)C (configuration not stated)")
"> 100 µM"
>>> recorded_value("CCCCCN1CCN(c2ncccn2)CC1")
"> 100 µM"
>>> recorded_value("COc1c2ccoc2cc2oc(=O)ccc12")
"> 100 µM"

Fill in reported TGI for this entry: CCOC(=O)CC(=O)C(=O)NNC1=NCCN1
> 100 µM

Fill in reported TGI for this entry: NC1OC(COC(=O)c2ccccc2)C(O)C(OC(=O)c2ccccc2)C1OC(=O)c1ccccc1 (configuration not stated)
34.7 µM

* * *

System: MDA-N
experimental protocol: NCI tumour cell line growth inhibition, 48 h
Where a SMILES comes first, the peptide text is derived from it. Bridges are numbered along the chain shown (N, C = ends). [ ]: non-standard residue; d: D form. The star is where a group is joined. PhAc = O=C(Cc1ccccc1)*
# reported TGI; entries follow

These solved cases illustrate the format of a correct answer.
>>> recorded_value("O=C(Nc1cccc(NC(=O)C(=O)C2CCC3=C(Sc4ccccc4N3)C2=O)n1)C(=O)C1CCC2=C(Sc3ccccc3N2)C1=O (centres undefined)")
"> 100 µM"
>>> recorded_value("O=C(Cc1ccccc1)N[C@@H]1COC(=O)[C@@H]2CCCN2C(=O)[C@@H]2CCCN2C1=O (PhAc-[dS]-Pro-Pro; ester 1-C)")
"> 100 µM"
>>> recorded_value("CC1C(=NO)C(C)C(c2ccccc2)N(N=O)C1c1ccccc1 (centres undefined)")
"36.3 µM"
>>> recorded_value("COc1cccc(C(=O)Nc2c3ccccc3nc3ccccc23)c1OC")
"> 100 µM"
>>> recorded_value("CC1(C)O[C@H]([C@H](O)c2nnc3ccc(Cl)nn23)[C@@H]([C@H]2COC(C)(C)O2)O1")
"> 100 µM"
>>> recorded_value("C=C[C@]1(O)CCC[C@]2(C)C(=O)CCC12C (some centres undefined)")
"> 100 µM"
>>> recorded_value("CCOC(=O)N1CC2(C)C=CC1C(C(=O)OC)C2 (centres undefined)")
"> 100 µM"
>>> recorded_value("NC(=O)/C(=C\\c1ccncc1)c1cccc2ccccc12")
"> 100 µM"

Fill in reported TGI for this entry: CC1=[N+]([O-])C(C)(C)N(N=O)C1(C)C
> 10 µM

Fill in reported TGI for this entry: O=c1[nH]cc(/C=N\Nc2ccccc2)c(=O)[nH]1
> 100 µM

Fill in reported TGI for this entry: CC1=C(C(=O)Nc2ccccc2C)C(c2ccc(C3C(C(=O)Nc4ccccc4C)=C(C)NC(C)=C3C(=O)Nc3ccccc3C)cc2)C(C(=O)Nc2ccccc2C)=C(C)N1
19.9 µM

* * *

System: A498 renal
experimental protocol: NCI tumour cell line growth inhibition, 48 h
# reported TGI; entries follow
Answer in µM, number only, no unit symbol.

>>> recorded_value("Nc1ccccc1SC(CC(=O)c1ccccc1)c1ccc([N+](=O)[O-])cc1 (centres undefined)")
27.7
>>> recorded_value("C[C@H]1CC[C@H]([C@@H](C)[C@H]2[C@@H](O)C[C@H]3[C@@H]4CC[C@H]5C[C@@H](O)CC[C@]5(C)[C@H]4CC[C@]23C)NC1")
32.1
>>> recorded_value("Cc1ccccc1[P+](C)(c1ccccc1C)c1ccccc1C")
49.9
>>> recorded_value("COc1c(C)c2c(c3c1c(=O)c1ccccc1n3C)C=CC(C)(C)O2")
73.4
>>> recorded_value("CCN(CC)CCCC(C)Nc1cc(-c2ccc(C(F)(F)F)cc2)c(C#N)c2nc3ccccc3n12 (centres undefined)")
2.9

Fill in reported TGI for this entry: CCCc1cc(=O)oc2c(C=O)c(O)cc(O)c12
40.6

Fill in reported TGI for this entry: CC(C)(Br)C(Br)CCC(=CCBr)CBr (mixture of isomers)
44.6

Fill in reported TGI for this entry: NCCCCCCCCn1c2c(c3ccccc3c1=O)C(=O)c1ccccc1-2
15.8

* * *

System: SK-MEL-2 melanoma
experimental protocol: NCI tumour cell line growth inhibition, 48 h
measured endpoint: TGI

>>> recorded_value("CCOc1cc2ccc3c4cc(OC)c(OC)cc4cnc3c2cc1OCC")
"> 100 µM"
>>> recorded_value("CCOC(=O)C(Cc1c[nH]c2ccc([N+](=O)[O-])cc12)(NC(C)=O)C(=O)OCC")
"> 1000 µM"
>>> recorded_value("CC(C)(C)N1C(=O)c2ccccc2C1(O)C(F)(F)F (configuration not stated)")
"> 100 µM"
>>> recorded_value("CCN1CCN(c2nc3ccccc3nc2C(=O)c2ccc(OC)cc2)CC1")
"> 100 µM"
>>> recorded_value("CCN1C(=O)N(CC)C2C1NN=c1s/c(=C\\c3ccccc3F)c(=O)n12 (configuration not stated)")
"> 38.9 µM"

Fill in reported TGI for this entry: CCOC(=O)C[C@@H](C)[C@]1(C(=O)OC)CCCC1=O
> 100 µM

Fill in reported TGI for this entry: Cc1nc2ccccn2c1NC(=O)NNC(=S)Nc1ccc(Br)cc1
> 100 µM

Fill in reported TGI for this entry: COc1cc(C2SCC(=O)N2Cc2ccccc2)cc(OC)c1OC (configuration not stated)
> 100 µM

Fill in reported TGI for this entry: Cc1ccc2c3c(cnc2n1)C(=O)OCCN3C
> 100 µM

Fill in reported TGI for this entry: c1ccc(CSC2(SCc3ccccc3)CCCC2)cc1
> 10 µM

Fill in reported TGI for this entry: Nc1nc(Cl)cc(NCCCNc2cc(Cl)nc(N)n2)n1
> 100 µM

Fill in reported TGI for this entry: c1ccc(N=C(N2CCOCC2)N(CCN2CCOCC2)c2ccccc2)cc1
> 100 µM
